- TEST: antimalarial activity against Dd2 strain (AID 2302);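 further: 0% = DMSO untreated growth and 100% = chloroquine plus artemisinin killed control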
- CONDITION_INFO: P. falciparum Dd2 in RBCs, LDH growth readout, 72 h; at 2 µM; hits give high values
Kindly state growth inhibition for each of the entries shown.
Give bare numbers, in %.

Here is how some compounds turned out for growth inhibition.
>  <COMPOUND>
Fc1ccccc1COc1ccc(Nc2ncnc3ccc(I)cc23)cc1Cl

>  <UOM>
%

>  <growth inhibition>
37

$$$$
>  <COMPOUND>
CC1(CCc2ccccc2)N=C(N)N=C(N)C1c1ccc(Cl)c(Cl)c1 (stereo not given)

>  <UOM>
%

>  <growth inhibition>
39

$$$$
>  <COMPOUND>
CNCCNCc1ccc(-c2cccc(-c3nc4ccc(C(F)(F)F)cc4[nH]3)c2)cc1

>  <UOM>
%

>  <growth inhibition>
77

$$$$
>  <COMPOUND>
O=C(Nc1ccncc1)c1cn(-c2ccccc2)nc1-c1cccs1

>  <UOM>
%

>  <growth inhibition>
10

$$$$
>  <COMPOUND>
FC(F)(F)c1ccc2nccc(NN=Cc3ccc(Cl)cc3)c2c1

>  <UOM>
%

>  <growth inhibition>
53

$$$$

Dear colleague, could you send me growth inhibition for each of the items below? Thanks.
1. CCNc1cc(C(=O)N[C@@H](Cc2ccccc2)[C@H](O)CNCCc2ccccc2)cc(N2CCCC2=O)c1
2. COc1cc(Cc2cnc(N)nc2N)cc(OCCCCc2nn[nH]n2)c1OC
3. Cc1ccc(NCc2cccc(F)c2)cc1S(=O)(=O)N[C@@H]1CCN(C#N)C1
4. O=c1cc(NCCCNCc2cc(F)cc(C(F)(F)F)c2)[nH]c2ccccc12
5. CC(C)(CNC(=O)[C@@H]1CCCN(Cc2ccc(Cl)cc2)C1)c1nc(-c2ccc(Cl)c(O)c2)c(-c2ccncc2)[nH]1

Result:
[46, 0, 83, 15, 37]

Dear colleague, could you send me growth inhibition for each of the items below? Thanks.
1. Cc1ccc2nc(C)cc(NC(=O)Nc3ccc(N(C)C)cc3)c2c1
2. CCN(CC)c1cc(C)c2cc(NC(=O)c3cc(=O)c4ccccc4o3)ccc2n1
3. Cc1cc(NN=Cc2ccc(Cl)cc2)c2ccccc2n1
4. O=C(/C=C/c1ccc(Cl)c(Cl)c1)NC1CCC(CN2CCC(c3c[nH]c4ccncc34)CC2)CC1 (stereo not given)
5. CCCCCN1CCCC1CNS(=O)(=O)c1ccc(C(=O)Nc2cccc(C(F)(F)F)c2)cc1 (stereo not given)
6. Cc1noc(C)c1-c1ccc2c(Nc3ccccc3C(C)(C)C)c(C(=O)NCc3ccc(OC(C)C)cc3)cnc2c1
7. CCCc1cn2c3c(cc(C(=O)N[C@@H](Cc4ccccc4)[C@H](O)CNC4CCCCC4)cc13)N(CC)S(=O)(=O)CC2

Result:
1. 41
2. 67
3. 87
4. 96
5. -1
6. 98
7. 98

Dear colleague, could you send me growth inhibition for each of the items below? Thanks.
1. CC(C)C1CCc2nc(N)nc(N)c2C1 (stereo not given)
2. CC1CN(Cc2cccc(-c3ccc(-c4nc5ccc(F)cc5[nH]4)cc3)c2)CC(C)O1 (stereo not given)
3. O=C(Nc1cc(Cl)c(Cl)cc1NC(=O)c1cccc(-c2ccccc2)c1O)c1cccc(-c2ccccc2)c1O

Result:
[-2, 88, 100]
